Molecular target: NUDT2 (Homo sapiens, UniProt P50583)
Construct: synthesized gene (IDT)
Sequence (P50583 whole entry): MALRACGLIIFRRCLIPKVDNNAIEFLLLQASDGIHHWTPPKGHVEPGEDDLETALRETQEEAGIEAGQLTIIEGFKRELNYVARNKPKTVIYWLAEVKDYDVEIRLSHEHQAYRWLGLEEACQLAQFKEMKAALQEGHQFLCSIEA
Experiment: competitive gel-based ABPP, apparent IC50
Conditions: gel-based ABPP; read-out: apparent IC50, blockade of probe labeling of NUDT2
pIC50: −log10 of the molar value.
parameter-measured: pIC50

{"chemical-structure": "COC(=O)NC(=NC(=O)OCC1c2ccccc2-c2ccccc21)n1cccn1", "target-under-test": "NUDT2 (Homo sapiens, UniProt P50583)", "meas-value": 5.70}

---

Biological target: DYNC1H1 Cytoplasmic dynein 1 heavy chain 1 (Homo sapiens, UniProt Q14204)
Construct: isoTOP-ABPP experiments performed in cell lysates (in vitro); endogenous in cells; host or cells: soluble proteome of human cancer cell lines (MDA-MB-231, Ramos, Jurkat)
Sequence (Q14204 whole entry): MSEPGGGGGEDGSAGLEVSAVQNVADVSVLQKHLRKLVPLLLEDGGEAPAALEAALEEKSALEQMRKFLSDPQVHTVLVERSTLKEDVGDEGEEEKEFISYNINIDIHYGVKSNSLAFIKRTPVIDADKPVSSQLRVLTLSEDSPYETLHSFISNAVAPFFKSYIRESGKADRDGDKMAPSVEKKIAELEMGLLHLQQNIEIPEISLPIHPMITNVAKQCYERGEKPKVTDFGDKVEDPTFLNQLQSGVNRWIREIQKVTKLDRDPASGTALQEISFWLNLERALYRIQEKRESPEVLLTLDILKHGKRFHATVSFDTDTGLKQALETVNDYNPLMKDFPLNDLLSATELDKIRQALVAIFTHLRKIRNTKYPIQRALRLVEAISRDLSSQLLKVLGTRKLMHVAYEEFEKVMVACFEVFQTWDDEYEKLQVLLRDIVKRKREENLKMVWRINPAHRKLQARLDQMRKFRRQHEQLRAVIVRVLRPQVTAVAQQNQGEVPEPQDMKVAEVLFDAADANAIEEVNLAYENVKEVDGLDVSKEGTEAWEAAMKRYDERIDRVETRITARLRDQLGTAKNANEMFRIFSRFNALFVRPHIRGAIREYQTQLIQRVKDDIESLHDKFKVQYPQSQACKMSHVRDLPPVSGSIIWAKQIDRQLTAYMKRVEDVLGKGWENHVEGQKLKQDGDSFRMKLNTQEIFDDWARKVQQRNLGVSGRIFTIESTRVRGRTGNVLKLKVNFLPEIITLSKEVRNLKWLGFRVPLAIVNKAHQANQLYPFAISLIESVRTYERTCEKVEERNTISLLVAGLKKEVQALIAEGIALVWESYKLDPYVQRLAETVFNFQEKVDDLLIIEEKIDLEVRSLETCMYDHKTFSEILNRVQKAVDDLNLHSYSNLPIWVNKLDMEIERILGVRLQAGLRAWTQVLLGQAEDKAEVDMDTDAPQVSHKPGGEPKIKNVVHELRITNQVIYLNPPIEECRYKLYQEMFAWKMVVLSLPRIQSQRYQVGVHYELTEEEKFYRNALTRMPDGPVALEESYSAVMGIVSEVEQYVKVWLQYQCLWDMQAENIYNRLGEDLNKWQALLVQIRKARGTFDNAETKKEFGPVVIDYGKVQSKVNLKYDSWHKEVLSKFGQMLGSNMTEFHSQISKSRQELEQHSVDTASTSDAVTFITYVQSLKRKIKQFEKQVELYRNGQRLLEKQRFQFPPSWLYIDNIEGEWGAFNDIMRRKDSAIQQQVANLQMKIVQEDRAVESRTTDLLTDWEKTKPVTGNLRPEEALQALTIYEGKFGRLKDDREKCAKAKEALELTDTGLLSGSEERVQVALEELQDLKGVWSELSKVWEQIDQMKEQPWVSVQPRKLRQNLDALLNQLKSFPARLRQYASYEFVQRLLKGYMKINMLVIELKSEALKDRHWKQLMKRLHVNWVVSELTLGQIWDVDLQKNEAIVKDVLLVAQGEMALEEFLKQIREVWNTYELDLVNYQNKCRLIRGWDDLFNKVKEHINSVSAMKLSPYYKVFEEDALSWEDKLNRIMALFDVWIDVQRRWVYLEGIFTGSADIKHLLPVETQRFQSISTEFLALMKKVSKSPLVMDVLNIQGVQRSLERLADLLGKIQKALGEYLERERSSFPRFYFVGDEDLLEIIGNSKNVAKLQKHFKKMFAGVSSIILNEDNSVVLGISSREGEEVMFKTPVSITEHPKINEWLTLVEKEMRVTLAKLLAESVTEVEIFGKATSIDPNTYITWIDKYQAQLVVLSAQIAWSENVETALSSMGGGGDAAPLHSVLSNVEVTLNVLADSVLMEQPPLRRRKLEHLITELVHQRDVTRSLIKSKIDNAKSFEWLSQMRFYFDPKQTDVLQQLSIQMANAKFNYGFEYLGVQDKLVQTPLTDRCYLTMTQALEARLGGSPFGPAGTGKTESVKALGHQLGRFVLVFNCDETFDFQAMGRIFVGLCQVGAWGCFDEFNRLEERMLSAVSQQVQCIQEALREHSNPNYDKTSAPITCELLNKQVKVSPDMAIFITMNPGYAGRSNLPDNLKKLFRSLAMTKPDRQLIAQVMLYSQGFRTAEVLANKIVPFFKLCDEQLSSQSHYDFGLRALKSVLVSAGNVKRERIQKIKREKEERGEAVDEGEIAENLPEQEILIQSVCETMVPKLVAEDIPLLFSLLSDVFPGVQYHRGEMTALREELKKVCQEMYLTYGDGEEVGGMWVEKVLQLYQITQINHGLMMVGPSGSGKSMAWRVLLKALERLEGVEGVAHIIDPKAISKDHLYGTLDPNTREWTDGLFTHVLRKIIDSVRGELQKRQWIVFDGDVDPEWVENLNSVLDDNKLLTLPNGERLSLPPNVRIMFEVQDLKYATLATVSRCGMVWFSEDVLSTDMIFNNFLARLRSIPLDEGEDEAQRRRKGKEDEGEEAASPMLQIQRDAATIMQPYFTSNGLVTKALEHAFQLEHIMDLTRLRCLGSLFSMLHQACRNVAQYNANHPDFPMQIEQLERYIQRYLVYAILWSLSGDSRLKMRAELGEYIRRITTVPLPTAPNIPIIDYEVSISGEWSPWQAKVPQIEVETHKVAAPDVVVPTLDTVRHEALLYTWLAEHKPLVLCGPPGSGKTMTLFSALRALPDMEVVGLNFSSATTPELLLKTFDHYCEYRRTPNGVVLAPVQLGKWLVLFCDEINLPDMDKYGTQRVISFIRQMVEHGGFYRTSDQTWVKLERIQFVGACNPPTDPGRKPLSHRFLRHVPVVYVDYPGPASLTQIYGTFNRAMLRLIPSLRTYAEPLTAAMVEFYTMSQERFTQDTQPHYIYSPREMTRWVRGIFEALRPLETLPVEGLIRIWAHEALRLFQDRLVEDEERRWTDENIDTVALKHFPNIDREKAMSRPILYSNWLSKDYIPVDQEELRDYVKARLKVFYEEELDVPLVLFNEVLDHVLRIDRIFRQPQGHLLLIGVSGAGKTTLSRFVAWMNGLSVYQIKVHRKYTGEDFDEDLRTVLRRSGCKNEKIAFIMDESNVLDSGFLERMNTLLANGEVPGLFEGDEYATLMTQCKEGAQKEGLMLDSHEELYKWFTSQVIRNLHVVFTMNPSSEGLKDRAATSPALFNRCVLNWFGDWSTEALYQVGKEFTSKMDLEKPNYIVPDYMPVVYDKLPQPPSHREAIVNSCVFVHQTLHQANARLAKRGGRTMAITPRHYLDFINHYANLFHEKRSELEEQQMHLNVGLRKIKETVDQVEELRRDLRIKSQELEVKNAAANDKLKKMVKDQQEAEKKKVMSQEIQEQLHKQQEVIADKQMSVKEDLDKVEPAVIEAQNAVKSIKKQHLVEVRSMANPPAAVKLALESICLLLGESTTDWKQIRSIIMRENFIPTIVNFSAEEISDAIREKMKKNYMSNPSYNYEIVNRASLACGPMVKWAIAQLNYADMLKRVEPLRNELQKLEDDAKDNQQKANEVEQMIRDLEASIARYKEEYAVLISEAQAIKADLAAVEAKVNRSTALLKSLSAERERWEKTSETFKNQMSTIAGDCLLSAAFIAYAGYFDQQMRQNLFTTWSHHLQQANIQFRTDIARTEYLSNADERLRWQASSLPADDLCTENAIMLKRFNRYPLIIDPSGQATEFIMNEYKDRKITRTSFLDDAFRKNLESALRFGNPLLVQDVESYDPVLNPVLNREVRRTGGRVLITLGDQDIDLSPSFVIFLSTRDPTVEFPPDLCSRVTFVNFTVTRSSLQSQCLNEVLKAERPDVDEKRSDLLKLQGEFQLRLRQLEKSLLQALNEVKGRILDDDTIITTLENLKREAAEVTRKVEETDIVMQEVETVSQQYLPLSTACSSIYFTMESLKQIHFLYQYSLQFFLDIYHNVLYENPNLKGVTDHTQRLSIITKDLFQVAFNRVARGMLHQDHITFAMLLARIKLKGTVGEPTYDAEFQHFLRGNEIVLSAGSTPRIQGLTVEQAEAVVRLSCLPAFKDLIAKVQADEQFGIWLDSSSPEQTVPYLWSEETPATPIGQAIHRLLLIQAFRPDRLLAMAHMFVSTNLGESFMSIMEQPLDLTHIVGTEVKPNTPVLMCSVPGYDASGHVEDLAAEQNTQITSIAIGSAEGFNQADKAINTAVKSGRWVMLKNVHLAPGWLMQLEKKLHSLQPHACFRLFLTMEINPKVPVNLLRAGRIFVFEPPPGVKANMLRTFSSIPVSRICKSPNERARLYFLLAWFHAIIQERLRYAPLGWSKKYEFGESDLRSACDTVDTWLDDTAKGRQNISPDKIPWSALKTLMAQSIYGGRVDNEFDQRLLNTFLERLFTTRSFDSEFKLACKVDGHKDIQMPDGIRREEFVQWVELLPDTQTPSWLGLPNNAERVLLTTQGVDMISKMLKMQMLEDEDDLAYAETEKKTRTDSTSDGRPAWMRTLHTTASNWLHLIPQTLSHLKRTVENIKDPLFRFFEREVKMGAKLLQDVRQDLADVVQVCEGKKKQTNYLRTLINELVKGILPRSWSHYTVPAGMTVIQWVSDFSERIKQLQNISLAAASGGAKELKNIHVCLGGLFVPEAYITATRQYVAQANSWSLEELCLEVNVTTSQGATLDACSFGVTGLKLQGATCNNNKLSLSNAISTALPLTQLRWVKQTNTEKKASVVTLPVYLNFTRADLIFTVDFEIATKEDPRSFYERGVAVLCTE
Assay: competitive isoTOP-ABPP
Assay type: binding
Conditions: 50 uM_231_sol_in vitro

{"molecule": "O=C(ON1C(=O)CCC1=O)c1cc(C(F)(F)F)cc(C(F)(F)F)c1", "isoTOP-ABPP ratio, lysine Q14204_K1649": 1.3}
{"molecule": "N#Cc1ccc(C(=O)Oc2ccc([N+](=O)[O-])cc2[N+](=O)[O-])cc1 [fragment 44, 2,4-Dinitrophenyl 4-cyanobenzoate]", "isoTOP-ABPP ratio, lysine Q14204_K1649": 1.3}
{"molecule": "O=C(CCc1ccc2c(c1)OCO2)Oc1ccc([N+](=O)[O-])cc1[N+](=O)[O-]", "isoTOP-ABPP ratio, lysine Q14204_K1649": 1.0}
{"molecule": "NC(=O)c1cc(C(F)(F)F)cc(C(F)(F)F)c1 [fragment 51, reference compound]", "isoTOP-ABPP ratio, lysine Q14204_K1649": 0.7}
{"molecule": "O=C(Oc1c(F)c(F)c(C(F)(F)F)c(F)c1F)c1cc(C(F)(F)F)cc(C(F)(F)F)c1", "isoTOP-ABPP ratio, lysine Q14204_K1649": 0.9}
